# Tested on: H2009
# experimental details: Cell viability dose-response, H2009
# Type: cell-based, human
# conditions used: Homo sapiens, NCI-H2009; 12-point dose-response starting at 50 micromolar, 3-fold increments, in duplicate; read-out: toxicity data, H2009
Measured pIC50 values are reported for all entries that follow.
Keep it numeric: pIC50 is minus log10 of the concentration in mol/L.

O=C(NCCc1ccc(O)cc1)NC(=O)c1ccc(OCc2ccccc2)cc1 [SW208524-1-A] : 8.00
C#CCOc1ccc(C(=O)c2ccc(NC(=O)C(=O)NC(C)Cc3ccc(OC)cc3)cc2)cc1 (stereo not shown) [SW208217-1-A] : 4.91

Here's the next entry for you.
Quick one: pIC50 of COc1ccc(CCNC(=O)NC(=O)c2ccc(C(=O)Nc3cccc(OC)c3)cc2)cc1 [SW208410-1-A] ?
5.86

----------
# System: H2009
# experimental details: Cell viability dose-response, H2009
# Type: cell-based, human
# conditions used: Homo sapiens, NCI-H2009; 12-point dose-response starting at 50 micromolar, 3-fold increments, in duplicate; read-out: toxicity data, H2009
reported endpoint: IC50 (µM)
Respond with the bare value in µM.

// below: answered compounds
COc1cccc(C(=O)c2ccc(C(=O)NC(=O)NCCc3ccc(O)cc3)cc2)c1 : 0.42
COc1ccc(CCNC(=O)C(=O)Nc2cccc(Br)c2)cc1 : 11.3
COc1ccc(CCNC(=O)NC(=O)c2ccc(O)cc2)cc1 : 5.9
O=C(NCCc1ccc(O)cc1)NC(=O)c1ccc(COc2ccccc2)cc1 : 0.01

What reported IC50 corresponds to COc1ccc(CCCC(=O)Nc2ccc(C(=O)c3ccccc3)cc2)cc1 on H2009?
34.4

----------
# Test system: H2009
# experimental details: Cell viability dose-response, H2009
# Assay type: cell-based, human
# conditions used: Homo sapiens, NCI-H2009; 12-point dose-response starting at 50 micromolar, 3-fold increments, in duplicate; read-out: toxicity data, H2009
Measured log10(IC50) values are reported for all entries that follow.
Plainly stated, the numbers are log10 of IC50 given in µM.

// below: answered molecules
COc1ccc(CCNC(=O)NC(=O)c2ccc(C(=O)N3CCOCC3)cc2)cc1 : 1.67
COc1ccc(CCNC(=O)NC(=O)c2ccc(C(=O)N(C)C)cc2)cc1 : 1.22
COc1ccc(CCNC(=O)NC(=O)c2ccc(C(=O)NCc3ccccc3)cc2)cc1 : 0.33

What reported log10(IC50) corresponds to COc1ccccc1C(=O)c1ccc(C(=O)NC(=O)NCCc2ccc(O)cc2)cc1 on H2009?
0.33

What reported log10(IC50) corresponds to COc1ccc(CCNC(=O)NC(=O)c2ccc(C(=O)Nc3ccccc3)cc2)cc1 on H2009?
1.22

What reported log10(IC50) corresponds to COc1ccc(CCNC(=O)NC(=O)c2ccc(C(=O)N3CCCCC3)cc2)cc1 on H2009?
1.22

What reported log10(IC50) corresponds to COc1ccc(CCNC(=O)NC(=O)c2ccc(C(=O)NC3CC3)cc2)cc1 on H2009?
1.12

What reported log10(IC50) corresponds to COc1ccc(CCNC(=O)NC(=O)c2cccc(C)c2)cc1 on H2009?
1.22

What reported log10(IC50) corresponds to COc1ccc(CCNC(=O)NC(=O)c2cccc(-c3ccc(OC)cc3)c2)cc1 on H2009?
1.12

What reported log10(IC50) corresponds to Cc1cccc(C(=O)c2ccc(C(=O)NC(=O)NCCc3ccc(O)cc3)cc2)c1 on H2009?
-0.30
